Target: eIF2Bα (Homo sapiens, UniProt Q14232)
Construct: made in house; host or cells: E. coli BL21(DE3)
Assay: MIDAS (mass spectrometry integrated with equilibrium dialysis) metabolite binding screen
Conditions: MIDAS metabolite binding screen with eIF2Bα; sheet "eIF2Ba"
Quick reference for log2(corrected fold change) among some compounds

>>> measured_value("O=C(O)CCC(=O)O")
-0.05121
>>> measured_value("O=C(O)CCCCCCCCCCC(=O)O")
0.00577
>>> measured_value("NCCS(=O)(=O)O")
-0.01154
>>> measured_value("Cc1cc2nc3c(=O)[nH]c(=O)nc-3n(C[C@H](O)[C@H](O)[C@H](O)COP(=O)(O)O)c2cc1C [Riboflavin 5-monophosphate]")
0.06004

Request: Any idea what its log2(corrected fold change) is? The compound is C[N+](C)(C)CCOP(=O)([O-])OC[C@H](O)CO [L-alpha-Glycerophosphorylcholine]
Response: 0.1951

----------
Molecular target: eIF2Bα (Homo sapiens)
Construct: made in house; host or cells: E. coli BL21(DE3)
Experiment: MIDAS (mass spectrometry integrated with equilibrium dialysis) metabolite binding screen
Conditions: MIDAS metabolite binding screen with eIF2Bα; sheet "eIF2Ba"
Parameter: log2(corrected fold change)
Just the number, please.

As a guide, the following entries are already answered.
>>> measured_value("CN1c2c(nc(N)[nH]c2=O)NCC1CNc1ccc(C(=O)N[C@@H](CCC(=O)O)C(=O)O)cc1 (some centres unmarked) [5-Methyltetrahydrofolic acid]")
0.02128
>>> measured_value("O=C(O)CCCC(=O)C(=O)O")
-0.03769
>>> measured_value("O=C[C@H](O)[C@@H](O)[C@@H](O)CO")
0.02262
>>> measured_value("Cc1cn([C@@H]2O[C@H](CO)[C@@H](O)[C@H]2O)c(=O)[nH]c1=O")
0.07915

Request: // map OC[C@H]1OC(O)[C@H](O)[C@@H](O)[C@@H]1O (some centres unmarked) to recorded log2(corrected fold change) (system: eIF2Bα (Homo sapiens))
Response: -0.01874

----------
Molecular target: eIF2Bα (Homo sapiens, UniProt Q14232)
Construct: made in house; host or cells: E. coli BL21(DE3)
Sequence (Q14232 1-305): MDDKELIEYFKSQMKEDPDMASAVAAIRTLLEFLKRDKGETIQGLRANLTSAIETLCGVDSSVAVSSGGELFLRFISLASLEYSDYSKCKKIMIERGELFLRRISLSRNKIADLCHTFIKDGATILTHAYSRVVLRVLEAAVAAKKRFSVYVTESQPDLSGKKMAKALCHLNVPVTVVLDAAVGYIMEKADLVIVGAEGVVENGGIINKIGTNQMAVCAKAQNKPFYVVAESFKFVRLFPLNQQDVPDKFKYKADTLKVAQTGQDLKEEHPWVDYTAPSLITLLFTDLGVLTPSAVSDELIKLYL
Experiment: MIDAS (mass spectrometry integrated with equilibrium dialysis) metabolite binding screen
Details: MIDAS metabolite binding screen with eIF2Bα; sheet "eIF2Ba"
Quick reference for log2(corrected fold change) among some compounds
Just the number, please.

As a guide, the following entries are already answered.
>>> measured_value("NCCS [Cysteamine]")
0.01963
>>> measured_value("CC(C)CC(O)C(=O)O (stereo not drawn) [2-Hydroxyisocaproic acid]")
-0.0302
>>> measured_value("CCCCCCCC(=O)SCCNC(=O)CCNC(=O)C(O)C(C)(C)COP(=O)(O)OP(=O)(O)OC[C@H]1O[C@@H](n2cnc3c(N)ncnc32)[C@H](O)[C@@H]1OP(=O)(O)O (stereo partly drawn) [Octanoyl coenzyme A]")
0.3691
>>> measured_value("OC[C@H]1O[C@H](OCC2O[C@@H](O)[C@H](O)[C@@H](O)[C@@H]2O)[C@H](O)[C@@H](O)[C@H]1O (stereo partly drawn) [Melibiose]")
-0.003615
>>> measured_value("Nc1ncnc2c1ncn2[C@@H]1O[C@H](CO)[C@@H](O)[C@H]1O [Adenosine]")
0.2973
>>> measured_value("Nc1ncnc2c1ncn2[C@@H]1O[C@H](COP(=O)(O)OP(=O)(O)OP(=O)(O)O)[C@@H](O)[C@H]1O [Adenosine triphosphate]")
0.05437
>>> measured_value("NCCC(=O)N[C@@H](Cc1cnc[nH]1)C(=O)O [L-Carnosine]")
-0.01554
>>> measured_value("Nc1ccn([C@@H]2O[C@H](COP(=O)(O)OP(=O)(O)OP(=O)(O)O)[C@@H](O)[C@H]2O)c(=O)n1 [Cytidine 5-triphosphate]")
0.04784

Request: Any idea what its log2(corrected fold change) is? The compound is Nc1nc2c(ncn2[C@@H]2O[C@H](CO)[C@@H](O)[C@H]2O)c(=O)[nH]1 [Guanosine]
Response: 0.01196

Request: Any idea what its log2(corrected fold change) is? The compound is N[C@@H](CCCCNC(=O)CCCC[C@@H]1SC[C@@H]2NC(=O)N[C@@H]21)C(=O)O [Biocytin]
Response: -0.00281

Request: Any idea what its log2(corrected fold change) is? The compound is COc1cc(CC(=O)O)ccc1O [Homovanillic acid]
Response: -0.006498

Request: Any idea what its log2(corrected fold change) is? The compound is CNC[C@H](O)c1ccc(O)c(O)c1 [Epinephrine]
Response: -0.04113

Request: Any idea what its log2(corrected fold change) is? The compound is O=C[C@H](O)CO [D-Glyceraldehyde]
Response: -0.02892
